tested on: HCT-116 colon; experiment: NCI-60 one-dose screen, 48 h; conditions: 10 µM unless noted
Compounds without any hit were thinned out: in the full panel of roughly 83,000, 20% have a hit. The source made the active and inactive calls. The calls were made as follows: active = growth percent below 10; inactive = the rest.
Outcome field: choose from T (active), F (inactive)

Problem: Could you please tell me the result logged for CC1(C)C(=NO)C(C)(C)C1=NO in this assay?
Solution: F

Problem: Recorded test call requested for Cc1ccc(C2=C/C(=C/c3ccc(Br)cc3)C(=O)N2CCc2ccc(S(N)(=O)=O)cc2)cc1
Solution: F

Problem: Call for entry C=C(C)[C@@H]1CC[C@]2(C)[C@H](CC=C3[C@@H]4[C@@H](C)[C@H](C)CC[C@]4(C(N)=O)CC[C@]32C)[C@@]1(C)CCC#N :
Solution: T

Problem: Hello, I am checking results. What call was entered for Cc1cccc(C[C@H](NC(=O)Nc2ccc(Cl)cc2F)C(=O)N[C@@H]2C(=O)N3C[C@H](O)C[C@H]3C(=O)N3CCCC[C@H]3C(=O)N[C@@H](C)C(=O)N3C[C@H](C)C[C@H]3C(=O)O[C@H]2C)c1 ?
Solution: T

More entries:
Problem: # lookup: test call for c1coc2occoc=2o1
Solution: F

Problem: Kindly provide the recorded test outcome for the following compound: Cn1cc(-c2noc(-c3cn(C)c4ncc(F)cc34)n2)c2ccccc21
Solution: F

Problem: What outcome does the record of this test show for C=C(C)[C@@H]1CC[C@]2(C(=O)NCCCN)CC[C@]3(C)[C@H](CC[C@@H]4[C@@]5(C)CC[C@H](O)C(C)(C)[C@@H]5CC[C@]43C)[C@@H]12 ?
Solution: T

Problem: Test call, this compound: CCCCNC(=O)NS(=O)(=O)Cc1ccccc1
Solution: F

Just for reference, PubChem BioAssay (NCI) is where these values come from.
